Experiment: in vitro
Conditions: NMRI, mouse, brain homogenate, pH 7
quantityMeasured: fraction unbound at 5 h, 100 µM
One number for each entry.

What does the record list as fraction unbound at 5 h, 100 µM for CC(=O)CC(c1ccccc1)c1c(O)c2ccccc2oc1=O (stereo not shown) ?
0.179

----------
Test: in vitro
Conditions: NMRI, mouse, brain homogenate, pH 7
quantityMeasured: fraction unbound at 5 h, 0.3 µM
Answers are plain numbers.

Give the measured fraction unbound at 5 h, 0.3 µM of CC(=O)CC(c1ccccc1)c1c(O)c2ccccc2oc1=O (stereo not shown) .
0.086

----------
Assay: in vitro
Settings: NMRI, mouse, brain homogenate, pH 7
quantityMeasured: fraction unbound at 5 h, 10 µM

Look up fraction unbound at 5 h, 10 µM: CC(=O)CC(c1ccccc1)c1c(O)c2ccccc2oc1=O (stereo not shown)
0.143

----------
Test: in vitro
Conditions: NMRI, mouse, brain homogenate, pH 7
quantityMeasured: fraction unbound at 5 h, 30 µM
Numbers only.

Given CC(=O)CC(c1ccccc1)c1c(O)c2ccccc2oc1=O (stereo not shown) , state its recorded fraction unbound at 5 h, 30 µM.
0.168

----------
Assay: in vitro
Conditions: NMRI, mouse, brain homogenate, pH 7
quantityMeasured: fraction unbound at 5 h, 3 µM
One number for each entry.

Suppose we examine the molecule CC(=O)CC(c1ccccc1)c1c(O)c2ccccc2oc1=O (stereo not shown) [Warfarin] ; what fraction unbound at 5 h, 3 µM value has been reported?
0.143

----------
Assay: in vitro
Settings: NMRI, mouse, brain homogenate, pH 7
quantityMeasured: fraction unbound at 5 h, 1 µM
Give bare numbers.

Entry under review: CC(=O)CC(c1ccccc1)c1c(O)c2ccccc2oc1=O (stereo not shown) . Reported fraction unbound at 5 h, 1 µM?
0.112

meta.source: paper PMC7690585
